# PROTOCOL_TEXT: Quantitative High-Throughput drug screen in 47 multiple myeloma cell lines against the NCATS MIPE library collection: EJM_DSMZ cell viability assay (AID 1918926; further: nearly all actives have a fitted effect of over 30% in size; further: potency means the concentration at half of the fitted maximal effect)
# CONDITION_CONTEXT: EJM myeloma cell viability, CellTiter-Glo ATP, 48 h; series mostly up to 45.8 µM
# Text: PI: Beverly A. Mock Ph.D. Laboratory of Cancer Biology and Genetics, Center for Cancer Research, National Cancer Institute, National Institute of Health, Bethesda, Maryland […] 5; Detector; 425V; Luminescence; Viewlux PerkinElmer. […] 1. […] Briefly, the corresponding myeloma cell lines were screened in 1,536-well plates with 500 cells, 5-uL per well for inhibition of cell viability (assessed by measuring ATP levels with CellTiterGlo). […]
Records with an inconclusive call do not appear. Activity calls are given as the source filed them. The call rests on the fitted dose curve; in most records, active means well fitted cell-killing curve with a large enough effect; inconclusive means small, poorly fitted or top-dose-only effect, or effect the other way; inactive means no such curve, though single readings can be large or run the other way.

COMPOUND	Potency
COc1cc(CCc2cc(NC(=O)c3ccc(N4C[C@@H](C)N[C@@H](C)C4)cc3)n[nH]2)cc(OC)c1	18.7 µM (active)
CCNC(=O)Nc1ccc(-c2nc3c(c(N4CCOC[C@H]4C)n2)CCN(C2COC2)C3)cc1	7.43 µM (active)
COc1cccc2c1C(=O)c1c(O)c3c(c(O)c1C2=O)C[C@@](O)(C(=O)CO)C[C@H]3O[C@H]1C[C@H](N)[C@H](O)[C@H](C)O1	0.209 µM (active)
CC1(C)CC(O)CC(C)(C)N1[O]	inactive
CCC(C=C[C@@H]1OC(=O)C=C[C@H]1C)=C[C@H](C)CC=CC(C)=C[C@@H](C)C(=O)[C@@H](C)[C@H](O)[C@@H](C)CC(C)=CC(=O)O	0.0277 µM (active)
CC(=O)ON=C1C(c2c(O)[nH]c3cc(Br)ccc23)=Nc2ccccc21	11.8 µM (active)
CC(C)n1cnc2c(NCCc3ccc(O)cc3)nc(-c3csc4ccccc34)nc21	5.9 µM (active)
CN(C)CCN1C(=O)c2cccc3cc(N)cc(c23)C1=O	23.5 µM (active)
NC[C@H]1O[C@H](O[C@H]2[C@@H](O)[C@@H](O[C@H]3O[C@H](CO)[C@@H](O)[C@H](N)[C@@H]3O)[C@H](N)C[C@@H]2N)[C@H](N)C[C@H]1O	inactive
Cc1cnc(Nc2ccc(CN3CCOCC3)cc2)nc1Nc1cccc(S(=O)(=O)NC(C)(C)C)c1	5.9 µM (active)
Cc1cnc(Nc2ccc(N3CCN(C)CC3)cc2)nc1Nc1cccc(S(=O)(=O)NC(C)(C)C)c1	3.32 µM (active)
C[C@@H]1C(=O)O[C@H]2CC34[C@H]5C[C@@H](C(C)(C)C)C36[C@H](OC(=O)[C@@H]6O)O[C@@]4(C(=O)O5)[C@]21O (stereo partly specified)	inactive
CC(=O)C1=C(O)C=C2Oc3c(C(C)=O)c(O)c(C)c(O)c3C2(C)C1=O (stereo unspecified)	inactive
C[C@H](CCC(=O)O)[C@H]1CC[C@H]2[C@@H]3[C@H](O)C[C@@H]4C[C@H](O)CC[C@]4(C)[C@@H]3CC[C@]12C	inactive
O=C(C=Cc1ccc(CN(CCO)CCc2c[nH]c3ccccc23)cc1)NO	0.235 µM (active)
Nc1ncn([C@@H]2O[C@H](CO)[C@@H](O)[C@@H]2O)c(=O)n1	13.2 µM (active)
COc1ccc(C=Cc2cc(OC)c(OC)c(OC)c2)cc1NC(=O)[C@H](N)CO	0.0105 µM (active)
O=C(O)CCCCCC(=O)NN=C1CCCC1	inactive
N#CC(=C(N)Sc1ccc(N)cc1)c1ccccc1C(F)(F)F	inactive
CCCCCCCCc1ccc(CCC(N)(CO)CO)cc1	23.5 µM (active)
CC(=O)O[C@]1(C(C)=O)CC[C@H]2[C@@H]3C=C(C)C4=CC(=O)CC[C@]4(C)[C@@H]3CC[C@@]21C	inactive
